MEASURED ON: p47phox^SH3A−B (human His-tagged p47phox^151−286) (Homo sapiens, UniProt P14598)
Construct: human His-tagged p47phox^151−286
EXPERIMENTAL PROTOCOL: Fluorescence polarization (FP) competition assay
Assay type: binding
MEASUREMENT CONTEXT: water; probe Cy5-p22phox^149–162; over 2–20 min
pKi: −log10 of the molar value.
MEASURED ENDPOINT: pKi

What the record says about Ac-PPTNPPPRPPAE-NH2 [p22phox^151–162] : pKi is 3.66 to 3.77

---

MEASURED ON: NOX2 (Homo sapiens, UniProt P04839)
Construct: endogenous in cells
Sequence (P04839 2-570 limits assumed): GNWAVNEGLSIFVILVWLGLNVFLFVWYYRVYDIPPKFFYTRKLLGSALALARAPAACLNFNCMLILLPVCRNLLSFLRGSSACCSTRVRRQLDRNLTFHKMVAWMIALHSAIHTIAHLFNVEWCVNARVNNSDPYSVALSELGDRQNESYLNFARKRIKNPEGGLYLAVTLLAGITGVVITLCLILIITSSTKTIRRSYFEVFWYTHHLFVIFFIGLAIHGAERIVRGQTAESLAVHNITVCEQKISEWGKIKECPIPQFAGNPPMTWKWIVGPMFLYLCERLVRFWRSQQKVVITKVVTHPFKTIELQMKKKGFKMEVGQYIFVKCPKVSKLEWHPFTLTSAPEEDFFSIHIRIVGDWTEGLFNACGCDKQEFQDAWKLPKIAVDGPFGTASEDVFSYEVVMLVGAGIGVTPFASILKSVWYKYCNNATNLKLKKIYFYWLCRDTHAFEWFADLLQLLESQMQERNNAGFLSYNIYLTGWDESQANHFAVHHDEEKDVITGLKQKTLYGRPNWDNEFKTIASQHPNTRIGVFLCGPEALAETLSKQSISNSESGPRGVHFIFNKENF
Sequence (P13498 2-195 partner limits assumed): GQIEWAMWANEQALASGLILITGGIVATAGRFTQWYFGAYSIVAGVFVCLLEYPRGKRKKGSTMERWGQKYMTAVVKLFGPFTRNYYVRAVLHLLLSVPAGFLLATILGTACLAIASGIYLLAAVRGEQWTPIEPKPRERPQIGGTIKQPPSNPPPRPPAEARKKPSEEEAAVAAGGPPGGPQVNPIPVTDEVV
EXPERIMENTAL PROTOCOL: NOX2 cell-based assay (WST1, PMA-activated PLB-985 cells)
MEASUREMENT CONTEXT: PMA-stimulated differentiated PLB-985 cells; superoxide (WST1); read-out: IC50, NOX2 inhibition
MEASURED ENDPOINT: IC50 (µM)
One number for each entry, in µM.

NOX2 (Homo sapiens, UniProt P04839) assay, compound OCc1cccc(O)c1O [compound 15] , recorded IC50 = 63
